assay-method-text: chemical genetic growth profiling, strain panel (AID 1159580);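 further: tested at 20 µM; growth read once vehicle control cultures reached saturation at 30 °C; 1 = growth at the plate median or of vehicle wells; lower values mean less growth of the strain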
experimental-context: S. cerevisiae deletion strains, growth OD, locus YAR019C, strain CDC15, stronger effect = lower value
The whole screen tested about 5,500 compounds, of which about 2,000 (36%) were called active. Inconclusive results (about 18%) are left out. This is one part of the list.
reported-property: normalized growth

[[record]]
molecule = "O=C(NC(=S)NNc1ncc(C(F)(F)F)cc1Cl)c1cccs1"
reported_property = "normalized growth"
recorded_result = "0.665 (active)"

[[record]]
molecule = "CO/N=C1/CC(C)(C)Cc2c(-c3ccn(C(=O)Nc4cccc(Cl)c4)n3)sc(SC)c21"
reported_property = "normalized growth"
recorded_result = "0.981 (inactive)"

[[record]]
molecule = "Cc1cc(-c2onc(C)c2C(=O)Sc2ccccc2)no1"
reported_property = "normalized growth"
recorded_result = "0.941 (inactive)"

[[record]]
molecule = "O=C1/C(=C/c2c[nH]c3ccccc23)CSc2ccccc21"
reported_property = "normalized growth"
recorded_result = "0.989 (inactive)"

[[record]]
molecule = "Clc1cccc(Cl)c1C1CC(c2ccccc2)=Nc2ccccc2S1 (stereo not drawn)"
reported_property = "normalized growth"
recorded_result = "0.986 (inactive)"

[[record]]
molecule = "COc1ccc(Br)c(C(=O)/C(C#N)=C/c2cccs2)c1"
reported_property = "normalized growth"
recorded_result = "0.765 (active)"

[[record]]
molecule = "O=c1cc(CSc2ccc(Cl)cc2)c2ccc(O)cc2o1"
reported_property = "normalized growth"
recorded_result = "0.937 (inactive)"

[[record]]
molecule = "O=S(=O)(Nc1ccccc1Sc1c(Cl)cncc1Cl)c1ccc(Cl)cc1"
reported_property = "normalized growth"
recorded_result = "0.981 (inactive)"

[[record]]
molecule = "O=C1Nc2ccccc2/C1=C\\c1c[nH]c2ccccc12"
reported_property = "normalized growth"
recorded_result = "0.472 (active)"

[[record]]
molecule = "O=C(O/N=C1/CCCc2[nH]c3ccccc3c21)c1ccc(Cl)cc1Cl"
reported_property = "normalized growth"
recorded_result = "0.982 (inactive)"

[[record]]
molecule = "CC1(C)C=Cc2cc(/C(N)=N\\OC(=O)Nc3cccc(C(F)(F)F)c3)ccc2O1"
reported_property = "normalized growth"
recorded_result = "0.981 (inactive)"

[[record]]
molecule = "O=C(O/N=C1/CCCc2[nH]c3ccccc3c21)C1CCCCC1"
reported_property = "normalized growth"
recorded_result = "0.972 (inactive)"

[[record]]
molecule = "N#C/C(N=Cc1cc(Cl)cc(Cl)c1O)=C(\\C#N)N=Cc1cc(Cl)cc(Cl)c1O"
reported_property = "normalized growth"
recorded_result = "0.923 (inactive)"

[[record]]
molecule = "CCn1nc(C)cc1C(=O)Sc1cccc(Br)c1"
reported_property = "normalized growth"
recorded_result = "0.917 (inactive)"

[[record]]
molecule = "CN1/C(=C/C=C/c2ccc3ccccc3[n+]2C)C=Cc2ccccc21"
reported_property = "normalized growth"
recorded_result = "0.675 (active)"

[[record]]
molecule = "N/C(=N/OC(=O)c1cnn(-c2ccc([N+](=O)[O-])cc2)c1C(F)(F)F)c1ccc(Cl)cc1"
reported_property = "normalized growth"
recorded_result = "0.985 (inactive)"

[[record]]
molecule = "Cc1ccc(OS(=O)(=O)c2c(Cl)sc(Cl)c2Br)c([N+](=O)[O-])n1"
reported_property = "normalized growth"
recorded_result = "0.964 (inactive)"

[[record]]
molecule = "O=C1Nc2ccccc2/C1=C\\c1cccc2ccccc12"
reported_property = "normalized growth"
recorded_result = "0.97 (inactive)"

[[record]]
molecule = "ONC(=Nc1ccccc1Cl)c1ccccc1Cl"
reported_property = "normalized growth"
recorded_result = "0.999 (inactive)"

[[record]]
molecule = "O=C(OCc1ccccc1Br)c1cc([N+](=O)[O-])cc([N+](=O)[O-])c1"
reported_property = "normalized growth"
recorded_result = "0.973 (inactive)"

[[record]]
molecule = "N/C(=N/OC(=O)Nc1cccc(C(F)(F)F)c1)c1ccc(OC(F)(F)F)cc1"
reported_property = "normalized growth"
recorded_result = "0.983 (inactive)"

[[record]]
molecule = "N/C(=N/OC(=O)c1ccc([N+](=O)[O-])cc1)c1c(Cl)cccc1Cl"
reported_property = "normalized growth"
recorded_result = "0.939 (inactive)"

[[record]]
molecule = "O=C1OC(c2ccccc2)=C/C1=C/c1ccccc1"
reported_property = "normalized growth"
recorded_result = "0.952 (inactive)"

